target: CUL1 (Homo sapiens, UniProt Q13616, L371D/V367R); construct: CUL1 (Uniprot ID: Q13616, residue 15-410, V367R/L371D); GST-TEV (N, cleaved yes); made in house; host or cells: E. coli BL21 CodonPlus; assay: Naive Library Presenter Screening (phage, NGS), CUL1; type: binding; conditions: CUL1 target concentration 1000 nM, second column
Sequence (Q13616 15-410 V367R/L371D): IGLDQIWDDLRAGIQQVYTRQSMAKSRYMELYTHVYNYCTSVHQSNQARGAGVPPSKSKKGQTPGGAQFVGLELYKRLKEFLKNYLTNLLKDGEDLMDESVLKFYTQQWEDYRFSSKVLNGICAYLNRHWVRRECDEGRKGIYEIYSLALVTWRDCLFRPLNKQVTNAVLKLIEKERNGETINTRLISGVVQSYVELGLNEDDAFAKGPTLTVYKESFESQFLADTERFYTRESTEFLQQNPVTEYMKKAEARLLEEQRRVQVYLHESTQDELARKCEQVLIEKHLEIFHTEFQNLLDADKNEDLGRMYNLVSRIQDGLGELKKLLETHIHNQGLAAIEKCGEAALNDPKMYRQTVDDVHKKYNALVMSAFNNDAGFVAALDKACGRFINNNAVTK
MEASURED_METRIC: interaction data at Target Concentration 1000

SEQUENCE_CODE: DPAVMECDWAATICDIF
READING: 419
//
SEQUENCE_CODE: DPAYFACDIAALMCTVH
READING: 120
//
SEQUENCE_CODE: DPAQNDCEVAAFFCWLD
READING: 468
//
SEQUENCE_CODE: DPAYDWCDVAALFCLVE
READING: 151
//
SEQUENCE_CODE: DPAEQMCDIAAVWCLAH
READING: 88

Let us move to another entry and its interaction data at Target Concentration 1000.
Any idea what its interaction data at Target Concentration 1000 is? The sequence is `DPAEQECDHAALWCIVA`
743

====

biological target: MDM2 (Homo sapiens); construct: made in house; assay: Naive Library Presenter Screening (phage, NGS), MDM2; type: binding; conditions: MDM2 clusters (C82, C85); target concentration 100 nM
Sequence (Q00987 25-109): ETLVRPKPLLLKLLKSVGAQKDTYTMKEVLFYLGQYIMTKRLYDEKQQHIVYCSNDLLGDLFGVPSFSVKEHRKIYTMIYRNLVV
Numbered stars: 1 amine (or outer) side, 2 acyl side, 3 side chain; on linkers, the order of the positions; unused ones are H or OH. Bridge positions count the residues as written; N and C are the ends. Ends that are not written are not given here. Phenylene(1,4-NHCOCH2)2 = O=C(C[*:1])Nc1ccc(NC(=O)C[*:2])cc1
Catalogue of interaction data at Target Concentration 100 readings, one per entry.
Answer with a number only.

SEQUENCE_CODE: DPASADCFNAAWDCMWI (DPASADCFNAAWDCMWI-NH2; linker 7-14 via Phenylene(1,4-NHCOCH2)2 (inferred))
READING: 102

SEQUENCE_CODE: DPAYSDCFQAAWTCMIH (linker 7-14 via Phenylene(1,4-NHCOCH2)2 (inferred))
READING: 135

SEQUENCE_CODE: DPAQSDCFQAAWECVAN (DPAQSDCFQAAWECVAN-NH2; linker 7-14 via Phenylene(1,4-NHCOCH2)2 (inferred))
READING: 35

SEQUENCE_CODE: DPAHRQCFTAAWRCMMT (linker 7-14 via Phenylene(1,4-NHCOCH2)2 (inferred))
READING: 149

SEQUENCE_CODE: DPASAECFFAAWQCIAT (DPASAECFFAAWQCIAT-NH2; linker 7-14 via Phenylene(1,4-NHCOCH2)2 (inferred))
READING: 28

SEQUENCE_CODE: DPALMQCTEAAFWCYWE (linker 7-14 via Phenylene(1,4-NHCOCH2)2 (inferred); not fully specified (C-terminus))
READING: 24

SEQUENCE_CODE: DPAQEDCHAAAFWCIWD (DPAQEDCHAAAFWCIWD-NH2; linker 7-14 via Phenylene(1,4-NHCOCH2)2 (inferred))
READING: 15

SEQUENCE_CODE: DPAYEDCFFAAWNCMMV (linker 7-14 via Phenylene(1,4-NHCOCH2)2 (inferred))
READING: 18

SEQUENCE_CODE: DPALFSCDSAAFSCYWY (linker 7-14 via Phenylene(1,4-NHCOCH2)2 (inferred); not fully specified (C-terminus))
READING: 25

SEQUENCE_CODE: DPAINTCQDAAFWCYWS (linker 7-14 via Phenylene(1,4-NHCOCH2)2 (inferred))
READING: 203

Any idea what its interaction data at Target Concentration 100 is? The sequence is DPAQHHCQQAAFWCQWW (DPAQHHCQQAAFWCQWW-NH2; linker 7-14 via Phenylene(1,4-NHCOCH2)2 (inferred))
13

Any idea what its interaction data at Target Concentration 100 is? The sequence is DPATESCEDAAFWCHWI (DPATESCEDAAFWCHWI-NH2; linker 7-14 via Phenylene(1,4-NHCOCH2)2 (inferred))
30

Any idea what its interaction data at Target Concentration 100 is? The sequence is DPARLRCQDAAFACMWY (DPARLRCQDAAFACMWY-NH2; linker 7-14 via Phenylene(1,4-NHCOCH2)2 (inferred))
17

Any idea what its interaction data at Target Concentration 100 is? The sequence is DPAAVQCNTAAFQCYWF (linker 7-14 via Phenylene(1,4-NHCOCH2)2 (inferred))
23

====

Molecular target: CUL4B (Homo sapiens, UniProt Q13620, L520D/V516R)
Construct: GST-TEV (N, cleaved yes); made in house; host or cells: E. coli BL21 CodonPlus
Sequence (Q13620 206-557 V516R/L520D): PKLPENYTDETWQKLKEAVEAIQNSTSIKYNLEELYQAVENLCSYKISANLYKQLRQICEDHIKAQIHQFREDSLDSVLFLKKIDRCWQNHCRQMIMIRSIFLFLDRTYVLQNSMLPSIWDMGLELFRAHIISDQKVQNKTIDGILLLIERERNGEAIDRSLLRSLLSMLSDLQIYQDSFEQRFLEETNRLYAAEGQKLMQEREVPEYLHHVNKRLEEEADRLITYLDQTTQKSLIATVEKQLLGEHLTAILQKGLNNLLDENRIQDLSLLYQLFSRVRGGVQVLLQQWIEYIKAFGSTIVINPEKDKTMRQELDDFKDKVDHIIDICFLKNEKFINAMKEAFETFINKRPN
Assay: Naive Library Presenter Screening (phage, NGS), CUL4B
Assay type: binding
Conditions: CUL4B target concentration 1000 nM, first column
Grouping by measured interaction data at Target Concentration 1000 is done with the following cut points: bucket 1 (below 10), bucket 2 (10 to below 30), bucket 3 (30 or more)

Illustrative cases are given below, each with its answer.
SEQUENCE_CODE: DPADRQCLFAAWYCEHT
SYSTEM_UNDER_TEST: CUL4B (Homo sapiens, UniProt Q13620, L520D/V516R)
ASSIGNED_LABEL: bucket 2
--
SEQUENCE_CODE: DPADRYCDMAAWVCERF
SYSTEM_UNDER_TEST: CUL4B (Homo sapiens, UniProt Q13620, L520D/V516R)
ASSIGNED_LABEL: bucket 3
--
SEQUENCE_CODE: DPASRMCEMAAWFCENY
SYSTEM_UNDER_TEST: CUL4B (Homo sapiens, UniProt Q13620, L520D/V516R)
ASSIGNED_LABEL: bucket 3

Which of the defined bands does the recorded interaction data at Target Concentration 1000 of `DPADRQCIFAAWMCEAF` sit within?
bucket 3

Which of the defined bands does the recorded interaction data at Target Concentration 1000 of `DPAQRACQFAAWICERF` sit within?
bucket 3

Which of the defined bands does the recorded interaction data at Target Concentration 1000 of `DPADRWCELAAWICDEF` sit within?
bucket 2

Which of the defined bands does the recorded interaction data at Target Concentration 1000 of `DPASRLCELAAWVCDSF` sit within?
bucket 3

Which of the defined bands does the recorded interaction data at Target Concentration 1000 of `DPATRMCELAAWTCEVW` sit within?
bucket 1

====

target: CUL1 (Homo sapiens, UniProt Q13616, L371D/V367R); construct: CUL1 (Uniprot ID: Q13616, residue 15-410, V367R/L371D); GST-TEV (N, cleaved yes); made in house; host or cells: E. coli BL21 CodonPlus; test: Naive Library Presenter Screening (phage, NGS), CUL1; format: binding; details: CUL1 target concentration 300 nM
Entry flag: MET if interaction data at Target Concentration 300 reaches 100; NOT MET if it does not.

Illustrative cases are given below, each with its answer.
SEQUENCE_CODE: DPAYDWCDVAALFCLVE
ASSIGNED_LABEL: NOT MET
//
SEQUENCE_CODE: DPAEFVCDWAALACLVD
ASSIGNED_LABEL: MET
//
SEQUENCE_CODE: DPAEVHCDMAALYCIIR
ASSIGNED_LABEL: MET
//
SEQUENCE_CODE: DPAYFACDIAALMCTVH
ASSIGNED_LABEL: MET
//
SEQUENCE_CODE: DPAEQECDHAALWCIVA
ASSIGNED_LABEL: MET
//
SEQUENCE_CODE: DPAVMECDWAATICDIF
ASSIGNED_LABEL: MET
//
SEQUENCE_CODE: DPAEMQCDYAAILCIVR
ASSIGNED_LABEL: NOT MET
//
SEQUENCE_CODE: DPAIIQCDQAALWCVVT
ASSIGNED_LABEL: NOT MET
//
SEQUENCE_CODE: DPAMLQCDMAALWCMVS
ASSIGNED_LABEL: NOT MET
//
SEQUENCE_CODE: DPAEAACDIAALMCIID
ASSIGNED_LABEL: MET

Quick check, interaction data at Target Concentration 300 >= 100? `DPAEQMCDIAAVWCLAH`
MET

Quick check, interaction data at Target Concentration 300 >= 100? `DPAQILCDLAALYCVVE`
NOT MET

Quick check, interaction data at Target Concentration 300 >= 100? `DPAQNDCEVAAFFCWLD`
MET

Values were extracted from patent US20240376151A1.
